test: logP by HPLC (EEC Directive 79/831 Annex V. A8, gradient method); format: physicochemical; conditions: acetonitrile/0.1% aqueous phosphoric acid
chromatographic logP by entry:
# print the numeric value only

Take a look at these entries with their results.
CCN(CC)S(=O)(=O)n1c(Oc2ccccc2)noc1=O; 3.06
Cc1ccc(Oc2noc(=O)n2S(=O)(=O)N(C)C)c(C)c1; 3.13
CCN(CC)S(=O)(=O)n1c(Oc2cccc(Cl)c2)noc1=O; 3.53

Looking for the measured chromatographic logP of "Cc1cc(C)cc(Oc2noc(=O)n2S(=O)(=O)N(C)C)c1" , can you help?
3.18

Looking for the measured chromatographic logP of "CN(C)S(=O)(=O)n1c(Oc2ccc(Cl)cc2)noc1=O" , can you help?
2.94
